Target or system: Fibroblast growth factor receptor 1 (Homo sapiens) (UniProt P11362);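 also: values are reported as mean percent inhibition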
Sequence (P11362 22-822 limits assumed): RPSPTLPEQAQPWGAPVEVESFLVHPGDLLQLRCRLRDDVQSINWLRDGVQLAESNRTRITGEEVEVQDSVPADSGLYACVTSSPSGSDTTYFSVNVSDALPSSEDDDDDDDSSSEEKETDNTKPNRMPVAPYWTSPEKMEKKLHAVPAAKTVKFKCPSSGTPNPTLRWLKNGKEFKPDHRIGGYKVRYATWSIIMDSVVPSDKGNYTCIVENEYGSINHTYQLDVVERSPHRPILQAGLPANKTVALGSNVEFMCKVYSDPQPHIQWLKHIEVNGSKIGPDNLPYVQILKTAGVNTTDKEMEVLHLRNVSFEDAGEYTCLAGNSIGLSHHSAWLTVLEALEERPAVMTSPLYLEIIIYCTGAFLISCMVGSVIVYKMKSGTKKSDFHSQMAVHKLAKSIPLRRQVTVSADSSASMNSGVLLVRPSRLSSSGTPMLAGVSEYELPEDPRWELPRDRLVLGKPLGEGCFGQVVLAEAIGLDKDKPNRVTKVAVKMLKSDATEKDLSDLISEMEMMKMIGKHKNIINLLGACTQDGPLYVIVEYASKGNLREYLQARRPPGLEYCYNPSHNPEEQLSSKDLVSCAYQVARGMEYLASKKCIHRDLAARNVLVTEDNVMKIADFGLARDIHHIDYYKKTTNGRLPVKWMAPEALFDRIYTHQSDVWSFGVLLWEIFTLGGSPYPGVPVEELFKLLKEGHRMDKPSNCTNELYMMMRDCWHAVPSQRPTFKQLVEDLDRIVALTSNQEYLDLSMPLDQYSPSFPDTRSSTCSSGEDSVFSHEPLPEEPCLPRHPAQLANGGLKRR
Settings: at 0.1 µM
For each of the compounds below, state its inhibition.
Give bare numbers, in %.

Worked set:
Smiles | inhibition [%]
NC(=O)c1sc(-n2cnc3cc(C(F)(F)F)ccc32)cc1OCc1ccccc1Br | -2.05
Fc1ccc(-c2ncn(C3CCNCC3)c2-c2ccnc(Oc3ccccc3)n2)cc1 | -5.35
CCn1c(-c2nonc2N)nc2c(C#CC(C)(C)O)nc(O[C@@H](CN)c3ccccc3)cc21 | -5.77

Your task in this section: give inhibition for each listed record.
1. Nc1nonc1-c1nc2cnccc2n1C1CCCCC1
2. COc1cc2c(cc1Nc1nc(Nc3ccsc3C(N)=O)c3cc[nH]c3n1)N(C(=O)CN(C)C)CCC2
3. NS(=O)(=O)c1ccc(-c2ccc3c(NC(=O)C4CC4)n[nH]c3c2)cc1
4. CCn1c(-c2nonc2N)nc2c(C#CC(C)(C)O)ncc(OCC3CCNCC3)c21
5. CCn1c(-c2nonc2N)nc2c(C#CC(C)(C)O)ncc(OC[C@@H]3CCCN3)c21

Solution:
1. -7.32
2. -0.88
3. 2.31
4. -2.34
5. -0.74

----------
Target or system: Serine/threonine-protein kinase 3 (Homo sapiens) (UniProt Q13188);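 also: reported value is the mean percent inhibition of MST2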
Sequence (whole entry): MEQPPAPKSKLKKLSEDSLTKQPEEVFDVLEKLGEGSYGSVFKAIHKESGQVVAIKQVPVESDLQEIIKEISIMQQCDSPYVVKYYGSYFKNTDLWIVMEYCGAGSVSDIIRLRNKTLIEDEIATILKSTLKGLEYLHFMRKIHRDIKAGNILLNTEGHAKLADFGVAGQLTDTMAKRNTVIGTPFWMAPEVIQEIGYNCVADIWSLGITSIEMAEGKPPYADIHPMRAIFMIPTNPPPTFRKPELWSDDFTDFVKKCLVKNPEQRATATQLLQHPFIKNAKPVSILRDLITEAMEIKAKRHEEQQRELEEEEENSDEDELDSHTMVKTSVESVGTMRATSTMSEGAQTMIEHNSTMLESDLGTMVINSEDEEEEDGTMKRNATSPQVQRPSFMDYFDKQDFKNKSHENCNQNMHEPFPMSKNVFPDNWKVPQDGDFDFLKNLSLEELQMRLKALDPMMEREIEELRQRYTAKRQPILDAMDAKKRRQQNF
Settings: at 0.1 µM
For each of the molecules below, state its inhibition.
Numbers only, in %.

Worked set:
Smiles | Measurement unit | inhibition
CCn1c(-c2nonc2N)nc2c(C#CC(C)(C)O)nc(O[C@@H](CN)c3ccccc3)cc21 | % | 1.12
CCn1c(-c2nonc2N)nc2c(C#CC(C)(C)O)ncc(OC[C@@H]3CCCN3)c21 | % | 0.87

Below: the item to evaluate.
Problem: Param item = NC(=O)c1sc(-n2cnc3cc(C(F)(F)F)ccc32)cc1OCc1ccccc1Br ; retrieve measured inhibition.
Solution: 1.31

----------
Target or system: Death-associated protein kinase 1 (Homo sapiens) (UniProt P53355);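 also: each value is a mean inhibition figure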
Sequence (P53355 whole entry, looked up): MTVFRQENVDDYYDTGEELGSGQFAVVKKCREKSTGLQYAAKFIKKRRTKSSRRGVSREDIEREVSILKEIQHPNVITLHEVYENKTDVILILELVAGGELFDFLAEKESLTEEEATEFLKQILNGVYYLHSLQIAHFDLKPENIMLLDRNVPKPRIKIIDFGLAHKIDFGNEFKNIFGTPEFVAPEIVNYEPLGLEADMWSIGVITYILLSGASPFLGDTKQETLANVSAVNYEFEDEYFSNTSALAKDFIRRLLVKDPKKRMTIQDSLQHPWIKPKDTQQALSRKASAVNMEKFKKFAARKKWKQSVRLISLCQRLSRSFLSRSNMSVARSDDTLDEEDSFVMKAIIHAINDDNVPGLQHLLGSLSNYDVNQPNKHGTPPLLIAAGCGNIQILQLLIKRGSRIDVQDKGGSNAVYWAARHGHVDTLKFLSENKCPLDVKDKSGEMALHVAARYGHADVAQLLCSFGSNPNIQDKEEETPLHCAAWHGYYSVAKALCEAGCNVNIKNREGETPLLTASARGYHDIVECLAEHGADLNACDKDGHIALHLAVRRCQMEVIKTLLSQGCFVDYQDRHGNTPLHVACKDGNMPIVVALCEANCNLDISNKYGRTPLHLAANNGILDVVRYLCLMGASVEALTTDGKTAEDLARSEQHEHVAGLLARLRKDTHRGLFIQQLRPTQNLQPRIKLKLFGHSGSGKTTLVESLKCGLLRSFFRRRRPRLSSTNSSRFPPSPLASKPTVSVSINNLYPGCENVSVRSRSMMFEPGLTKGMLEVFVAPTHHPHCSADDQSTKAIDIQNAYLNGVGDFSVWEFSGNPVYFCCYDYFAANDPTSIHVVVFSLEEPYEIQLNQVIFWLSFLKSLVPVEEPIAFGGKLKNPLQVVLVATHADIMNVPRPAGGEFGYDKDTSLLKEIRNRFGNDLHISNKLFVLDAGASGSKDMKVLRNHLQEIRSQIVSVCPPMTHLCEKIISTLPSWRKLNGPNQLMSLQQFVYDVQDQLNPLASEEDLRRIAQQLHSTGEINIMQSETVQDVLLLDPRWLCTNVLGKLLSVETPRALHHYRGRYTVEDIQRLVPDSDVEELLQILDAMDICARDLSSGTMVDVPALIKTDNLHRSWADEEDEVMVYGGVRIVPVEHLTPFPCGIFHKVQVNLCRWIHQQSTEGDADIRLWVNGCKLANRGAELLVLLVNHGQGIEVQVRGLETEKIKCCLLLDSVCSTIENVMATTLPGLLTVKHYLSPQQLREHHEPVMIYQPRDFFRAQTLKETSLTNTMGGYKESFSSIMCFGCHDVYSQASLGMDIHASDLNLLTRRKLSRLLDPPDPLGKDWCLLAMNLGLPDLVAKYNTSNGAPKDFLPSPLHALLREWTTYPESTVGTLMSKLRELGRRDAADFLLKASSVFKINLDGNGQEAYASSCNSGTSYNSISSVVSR
Settings: at 1 µM
Measured attribute: inhibition (%)
Answers are plain numbers, in %.

Worked set:
Smiles | Target or system | Measurement unit | Reported result
CCn1c(-c2nonc2N)nc2c(C#CC(C)(C)O)ncc(OC[C@@H]3CCCN3)c21 | Death-associated protein kinase 1 (Homo sapiens) (UniProt P53355) | % | 0.89
COc1cc2c(cc1Nc1nc(Nc3ccsc3C(N)=O)c3cc[nH]c3n1)N(C(=O)CN(C)C)CCC2 | Death-associated protein kinase 1 (Homo sapiens) (UniProt P53355) | % | 4.14
COc1cc(C=NNc2ncnc3c2cnn3Cc2ccccc2)ccc1O | Death-associated protein kinase 1 (Homo sapiens) (UniProt P53355) | % | -3.68
Fc1ccc(-c2ncn(C3CCNCC3)c2-c2ccnc(Oc3ccccc3)n2)cc1 | Death-associated protein kinase 1 (Homo sapiens) (UniProt P53355) | % | -1.87

Your task in this section: give inhibition for each listed record.
1. CCn1c(-c2nonc2N)nc2c(C#CCN)ncc(OCCCN)c21
2. COc1cccc(-n2ncc3c(N/N=C/c4ccncc4)ncnc32)c1
3. NS(=O)(=O)c1ccc(-c2ccc3c(NC(=O)C4CC4)n[nH]c3c2)cc1

Solution:
[-3.38, 4.53, 4.32]

----------
For each of the compounds below, state its inhibition.
Target or system: MAP/microtubule affinity-regulating kinase 3 (Homo sapiens) (UniProt P27448);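 also: mean percent inhibition of MARK3 kinase activity, measured within the GSK PKIS screening panel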
Settings: at 0.1 µM
Numbers only, in %.

Your task in this section: give inhibition for each listed record.
1. COc1cccc(COc2cc(-n3cnc4ccccc43)sc2C(N)=O)c1
2. NS(=O)(=O)c1ccc(N/C=C2\C(=O)Nc3ccc4ncsc4c32)cc1
3. Fc1ccc(-c2ncn(C3CCNCC3)c2-c2ccnc(Oc3ccccc3)n2)cc1

Solution:
1. 2.28
2. 8.01
3. 0.57

Your task in this section: give inhibition for each listed record.
1. Cc1cc(-c2ccco2)cc(C)c1/C=C/c1cncc(-c2nn[nH]n2)c1
2. NS(=O)(=O)c1ccc(-c2ccc3c(NC(=O)C4CC4)n[nH]c3c2)cc1

Solution:
[-0.4, 2.65]

Your task in this section: give inhibition for each listed record.
1. COc1cc2c(cc1Nc1nc(Nc3ccsc3C(N)=O)c3cc[nH]c3n1)N(C(=O)CN(C)C)CCC2
2. CCn1c(-c2nonc2N)nc2c(C#CCN)ncc(OCCCN)c21
3. Nc1nonc1-c1nc2cnccc2n1C1CCCCC1
4. COc1cc(C=NNc2ncnc3c2cnn3Cc2ccccc2)ccc1O

Solution:
1: 2.11; 2: 6.58; 3: 4.04; 4: 0.53

----------
Target or system: Serine/threonine-protein kinase MARK2 (Homo sapiens) (UniProt Q7KZI7)
Sequence (Q7KZI7 whole entry): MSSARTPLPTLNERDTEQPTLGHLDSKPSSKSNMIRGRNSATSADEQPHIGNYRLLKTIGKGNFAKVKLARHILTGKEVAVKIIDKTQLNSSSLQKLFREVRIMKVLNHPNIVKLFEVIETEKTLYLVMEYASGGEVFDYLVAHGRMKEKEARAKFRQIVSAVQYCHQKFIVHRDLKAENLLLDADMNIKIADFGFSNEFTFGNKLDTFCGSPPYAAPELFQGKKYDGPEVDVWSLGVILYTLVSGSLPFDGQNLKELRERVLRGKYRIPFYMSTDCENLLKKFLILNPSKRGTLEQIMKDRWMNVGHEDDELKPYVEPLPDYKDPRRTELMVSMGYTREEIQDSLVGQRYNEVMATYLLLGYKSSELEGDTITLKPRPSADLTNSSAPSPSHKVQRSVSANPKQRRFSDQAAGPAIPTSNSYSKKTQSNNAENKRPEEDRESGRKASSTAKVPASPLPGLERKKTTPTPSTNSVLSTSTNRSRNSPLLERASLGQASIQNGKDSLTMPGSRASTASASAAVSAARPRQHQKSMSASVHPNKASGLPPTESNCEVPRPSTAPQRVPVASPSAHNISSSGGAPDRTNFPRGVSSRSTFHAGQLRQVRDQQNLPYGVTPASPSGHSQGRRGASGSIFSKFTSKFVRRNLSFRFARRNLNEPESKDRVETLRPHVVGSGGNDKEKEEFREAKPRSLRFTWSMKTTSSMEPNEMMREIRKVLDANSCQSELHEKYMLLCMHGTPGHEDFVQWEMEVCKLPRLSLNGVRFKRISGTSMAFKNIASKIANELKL
Settings: at 1 µM
Description: GSK_PKIS: PAR-1Balpha mean inhibition at 1 uM [Nanosyn]
Measured attribute: inhibition (%)
Numbers only, in %.

Worked set:
Smiles | Target or system | Measurement unit | Reported result
Cc1cc(-c2ccco2)cc(C)c1/C=C/c1cncc(-c2nn[nH]n2)c1 | Serine/threonine-protein kinase MARK2 (Homo sapiens) (UniProt Q7KZI7) | % | -0.28
COc1cc(C=NNc2ncnc3c2cnn3Cc2ccccc2)ccc1O | Serine/threonine-protein kinase MARK2 (Homo sapiens) (UniProt Q7KZI7) | % | 4.82
CCn1c(-c2nonc2N)nc2c(C#CC(C)(C)O)nc(O[C@@H](CN)c3ccccc3)cc21 | Serine/threonine-protein kinase MARK2 (Homo sapiens) (UniProt Q7KZI7) | % | 90.5
NS(=O)(=O)c1ccc(N/C=C2\C(=O)Nc3ccc4ncsc4c32)cc1 | Serine/threonine-protein kinase MARK2 (Homo sapiens) (UniProt Q7KZI7) | % | 34.6
COc1cc2c(cc1Nc1nc(Nc3ccsc3C(N)=O)c3cc[nH]c3n1)N(C(=O)CN(C)C)CCC2 | Serine/threonine-protein kinase MARK2 (Homo sapiens) (UniProt Q7KZI7) | % | 5.44
CCn1c(-c2nonc2N)nc2c(C#CCN)ncc(OCCCN)c21 | Serine/threonine-protein kinase MARK2 (Homo sapiens) (UniProt Q7KZI7) | % | 10.1

Your task in this section: give inhibition for each listed record.
1. NS(=O)(=O)c1ccc(-c2ccc3c(NC(=O)C4CC4)n[nH]c3c2)cc1
2. CCn1c(-c2nonc2N)nc2c(C#CC(C)(C)O)ncc(OC[C@@H]3CCCN3)c21

Solution:
2.59
51.9

----------
Target or system: Serine/threonine-protein kinase 26 (Homo sapiens) (UniProt Q9P289)
Sequence (Q9P289 2-416 limits assumed): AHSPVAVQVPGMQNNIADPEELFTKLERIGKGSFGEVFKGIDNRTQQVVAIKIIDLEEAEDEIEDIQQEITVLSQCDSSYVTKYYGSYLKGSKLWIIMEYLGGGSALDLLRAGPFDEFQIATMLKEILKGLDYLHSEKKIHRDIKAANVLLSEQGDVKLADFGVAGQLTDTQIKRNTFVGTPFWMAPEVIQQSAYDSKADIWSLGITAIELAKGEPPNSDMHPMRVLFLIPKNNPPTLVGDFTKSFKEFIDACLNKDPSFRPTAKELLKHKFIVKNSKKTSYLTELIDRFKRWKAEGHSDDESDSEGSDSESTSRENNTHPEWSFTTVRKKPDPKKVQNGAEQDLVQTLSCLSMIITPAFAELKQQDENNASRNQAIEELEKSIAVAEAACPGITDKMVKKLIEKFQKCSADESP
Settings: at 0.1 µM
Description: GSK_PKIS: MST4 mean inhibition at 0.1 uM [Nanosyn]
Each entry gets NOT MET if its inhibition stays under 1%, and MET if its inhibition is 1% or above.

Worked cases, answers included:
Smiles | Assigned class
COc1cccc(COc2cc(-n3cnc4ccccc43)sc2C(N)=O)c1 | MET
CCn1c(-c2nonc2N)nc2c(C#CC(C)(C)O)ncc(OCC3CCNCC3)c21 | NOT MET
Cc1cc(-c2ccco2)cc(C)c1/C=C/c1cncc(-c2nn[nH]n2)c1 | MET
CCn1c(-c2nonc2N)nc2c(C#CC(C)(C)O)nc(O[C@@H](CN)c3ccccc3)cc21 | MET
CCn1c(-c2nonc2N)nc2c(C#CC(C)(C)O)ncc(OC[C@@H]3CCCN3)c21 | NOT MET
CCn1c(-c2nonc2N)nc2c(C#CCN)ncc(OCCCN)c21 | MET
COc1cccc(-n2ncc3c(N/N=C/c4ccncc4)ncnc32)c1 | NOT MET
Nc1nonc1-c1nc2cnccc2n1C1CCCCC1 | NOT MET

Let us examine a further case.
Problem: Please indicate if the recorded inhibition for COc1cc2c(cc1Nc1nc(Nc3ccsc3C(N)=O)c3cc[nH]c3n1)N(C(=O)CN(C)C)CCC2 meets or exceeds 1%.
Solution: MET

----------
Target or system: Misshapen-like kinase 1 (Homo sapiens) (UniProt Q8N4C8);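 also: mean inhibition value reported, from GSK PKIS kinase profiling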
Sequence (Q8N4C8 whole entry, looked up): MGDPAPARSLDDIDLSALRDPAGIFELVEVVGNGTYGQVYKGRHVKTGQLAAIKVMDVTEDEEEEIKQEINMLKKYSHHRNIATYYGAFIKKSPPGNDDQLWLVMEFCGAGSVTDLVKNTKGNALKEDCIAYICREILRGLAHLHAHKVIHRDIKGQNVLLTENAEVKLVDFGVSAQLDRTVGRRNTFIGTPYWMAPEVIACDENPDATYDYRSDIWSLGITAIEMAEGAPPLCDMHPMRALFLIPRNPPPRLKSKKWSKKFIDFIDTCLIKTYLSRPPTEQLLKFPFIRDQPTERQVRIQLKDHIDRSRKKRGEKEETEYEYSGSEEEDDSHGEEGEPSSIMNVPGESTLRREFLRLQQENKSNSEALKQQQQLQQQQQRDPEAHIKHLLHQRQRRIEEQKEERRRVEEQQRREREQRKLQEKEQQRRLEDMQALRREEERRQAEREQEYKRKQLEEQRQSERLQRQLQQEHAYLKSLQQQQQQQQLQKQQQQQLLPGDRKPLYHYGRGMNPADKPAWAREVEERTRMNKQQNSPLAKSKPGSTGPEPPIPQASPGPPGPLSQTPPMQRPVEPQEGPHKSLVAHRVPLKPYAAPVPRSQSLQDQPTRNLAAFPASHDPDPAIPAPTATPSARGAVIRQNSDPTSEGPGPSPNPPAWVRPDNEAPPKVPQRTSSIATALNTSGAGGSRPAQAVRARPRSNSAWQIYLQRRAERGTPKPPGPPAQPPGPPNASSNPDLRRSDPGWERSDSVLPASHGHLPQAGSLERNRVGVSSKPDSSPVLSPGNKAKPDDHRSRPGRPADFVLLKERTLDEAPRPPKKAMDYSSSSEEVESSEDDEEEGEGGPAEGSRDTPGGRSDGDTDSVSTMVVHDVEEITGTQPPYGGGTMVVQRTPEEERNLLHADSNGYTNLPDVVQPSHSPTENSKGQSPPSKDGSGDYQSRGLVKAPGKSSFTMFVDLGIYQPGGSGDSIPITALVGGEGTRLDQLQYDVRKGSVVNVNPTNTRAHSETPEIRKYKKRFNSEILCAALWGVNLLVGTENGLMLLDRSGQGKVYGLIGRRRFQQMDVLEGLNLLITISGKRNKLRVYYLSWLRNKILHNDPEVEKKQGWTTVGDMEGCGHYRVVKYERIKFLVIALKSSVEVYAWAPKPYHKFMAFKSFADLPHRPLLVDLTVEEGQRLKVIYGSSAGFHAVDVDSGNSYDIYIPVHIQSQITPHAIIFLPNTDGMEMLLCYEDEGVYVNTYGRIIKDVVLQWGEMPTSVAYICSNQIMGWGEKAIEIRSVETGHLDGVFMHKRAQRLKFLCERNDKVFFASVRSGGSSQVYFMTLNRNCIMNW
Settings: at 0.1 µM
Measured attribute: inhibition

Smiles | inhibition
CCn1c(-c2nonc2N)nc2c(C#CCN)ncc(OCCCN)c21 | -0.45%
Nc1nonc1-c1nc2cnccc2n1C1CCCCC1 | 2.02%
CCn1c(-c2nonc2N)nc2c(C#CC(C)(C)O)ncc(OC[C@@H]3CCCN3)c21 | 0.63%
Fc1ccc(-c2ncn(C3CCNCC3)c2-c2ccnc(Oc3ccccc3)n2)cc1 | 2.7%
COc1cc2c(cc1Nc1nc(Nc3ccsc3C(N)=O)c3cc[nH]c3n1)N(C(=O)CN(C)C)CCC2 | 13.3%
COc1cccc(COc2cc(-n3cnc4ccccc43)sc2C(N)=O)c1 | 3.1%

Your task in this section: give inhibition for each listed record.
1. Cc1cc(-c2ccco2)cc(C)c1/C=C/c1cncc(-c2nn[nH]n2)c1
2. CCn1c(-c2nonc2N)nc2c(C#CC(C)(C)O)ncc(OCC3CCNCC3)c21

Solution:
["1.5%", "5.98%"]

Recorded values, source ChEMBL document CHEMBL1961873.
